- tested.system: Gamma-secretase
- assay: Displacement of [3H]succinamide from gamma secretase in THP1 cell membranes
- condition.description: thp-1
Below is a list of entries, each paired with its recorded pKi value.
Answer as the number alone; pKi is minus log10 of concentration in mol/L.

Solved entries (count: 6):
CC(C)CNC(=O)C1(C(=O)N[C@@H]2C(=O)N(C)c3ccccc3-c3ccccc32)CCCC1
8.52
CN1C(=O)[C@@H](NC(=O)C2(C(=O)NCc3cccs3)CCCC2)N=C(c2ccccc2)c2ccccc21
7.39
CC(C)CNC(=O)C1(C(=O)N[C@H]2N=C(c3ccc(C(F)(F)F)cc3)c3ccccc3N(C)C2=O)CCCC1
8.70
CC(C)[C@H](O)NC(=O)C1(C(=O)N[C@@H]2C(=O)N(C)c3ccccc3-c3ccccc32)CCC1
8.41
CN1C(=O)[C@@H](NC(=O)C2(C(=O)NCc3cc(F)cc(F)c3)CCCC2)N=C(c2ccccc2)c2ccccc21
8.00
CC(C)[C@H](O)NC(=O)C1(C(=O)N[C@H]2N=C(c3ccc(C(F)(F)F)cc3)c3ccccc3N(C)C2=O)CCC1
8.96

Ask: // fetch Gamma-secretase pKi for CCCCNC(=O)C1(C(=O)N[C@H]2N=C(c3ccccc3)c3ccccc3N(C)C2=O)CCC1
Reply: 7.96
